test system: Saccharomyces cerevisiae; experiment: transcriptional activation domain activity (GFP:mCherry ratio, weighted mean of sorted bins, harmonized to initial dataset scale) (arbitrary fluorescence ratio units); higher = stronger transcriptional activation; conditions: beta-estradiol 1 µM; induction time 4 h
Let's look at some sequences and their measured transcriptional activation domain activity.
metric.name: transcriptional activation domain activity

# sequence.code, result
rows = [
    ("LLLALLIADCGHLVSMRGLGVQVYWNIWEWNVFTAASVLLVYFYITLRICFLF", 53300),
    ("AIEEIRQDNESRQRENRVVYDRTDKDNERNESLNHQQGIRLVIIDSIHQPVTT", 45700),
    ("DLFMTLGWISGFMAELIAVQGACSLGWHPGCTNFNWLMAWLFFLFLSWGAGFF", 66400),
    ("ILPRWIQVAITFVALLAVSCIVMVVGLIVKYWTLSVSFGHFLSRFAVLRYIVL", 58500),
    ("IYCAGWVFRYFFLFPYRLSLLLAATLFFFLALPIVLYFKNDEWQRWLFRFYCQ", 57500),
    ("SFCVRHKFMWPLFRTRFIPCPVVSLIVLPTLFIVAYLPQVAFLAIFQGNLAWF", 58000),
    ("VCGAHCGYILGHINIFQPINWVLVQSSKVFPIDYVLFLLLVLFFFSASVVGLA", 21400),
    ("AMLMSLFVSVFCVYGVFIHVAASALQYQIVFFSPCIYMMLICGLSFLCCESPR", 75700),
    ("VGTLHENLSSSHFMIPDVDQFNSFEDFFQDFFDSLKPNSQKMFTSDKKTEQTT", 106000),
]

###

test system: Saccharomyces cerevisiae; test: transcriptional activation domain activity (GFP:mCherry ratio, weighted mean of sorted bins, harmonized to initial dataset scale) (arbitrary fluorescence ratio units); higher = stronger transcriptional activation; settings: beta-estradiol 1 µM; induction time 4 h
Let's look at some sequences and their measured transcriptional activation domain activity.
metric.name: transcriptional activation domain activity

# sequence.code, experimental.system, result
rows = [
    ("LYHALRLCLKFFVVSLVADPEFQRELDYFMKNKPWFIRWPAVFSLNMVWNYTK", "Saccharomyces cerevisiae", 42600),
    ("MVQNWEFFVFFFSFFIFSFCEVYMCAVCGLWCGSPGKLLGLLFLVLLCSLFFF", "Saccharomyces cerevisiae", 40300),
    ("SASAAAKPAAAPLKKSTSGSLASKPAMSSTKPAAAPAAAPARRASVVPAKSSA", "Saccharomyces cerevisiae", 33900),
    ("MVVFGCRCNVMLYILFCNLRFLLRGAVCIQILTMFILWCAMTEIVLSVLPILS", "Saccharomyces cerevisiae", 47300),
    ("AAAPDVENEPAGRRKAAAAGVEQGGGHPHMLKGVCGNAGWGDAQAAAGKACKG", "Saccharomyces cerevisiae", 26900),
    ("MPDVWLSWLVLSFAPSPPFHHFLWFWFCLIAWFIFFRPITWTFDTLFWFLFLP", "Saccharomyces cerevisiae", 43400),
    ("RRAVRPADADEREAVARVRPRARRRLGDVRDELDPRRGRRRVHGRIWGGVVRL", "Saccharomyces cerevisiae", 68000),
    ("LQAAAALESNTADGEDTNMETEEDKSGADGRSVYVGNVGYRFAVLLASNQVDY", "Saccharomyces cerevisiae", 36600),
    ("LPRFFFLSFYTFLLIFPLLHLFHHLSLLFSPPILLYSSLILFFSHFLPLLLFL", "Saccharomyces cerevisiae", 38900),
    ("RFRALRLLVIDDMIRLRDQSHCGWICTFLSSIELDVIQCINFRIWINMCPEFY", "Saccharomyces cerevisiae", 32600),
    ("VLAMVAQIRTGLWLLHYRDFMLRELCYDQDLYILQTALIILEPDLVFLLQFFE", "Saccharomyces cerevisiae", 33500),
    ("RKPEAAAEKAAEAPEAAGGEGTRRRASGRGRGRGRNGRGGRSARAGEEKKDET", "Saccharomyces cerevisiae", 29500),
    ("MGCILIFIFTFPYTPSFPFPFWFLFFVFLSFSFSFQKFLVFSFLSFVWVTVGR", "Saccharomyces cerevisiae", 51700),
    ("MHGTGVFFGCLGIHIFFFLSSLLFHVDIFVIRDIFFNFLLFFFIFFLRILYSM", "Saccharomyces cerevisiae", 42700),
    ("AYNALIFALVVCICTFGCCAYIFVSSLFIHKLYNKFIILAAHIWMIIFWLVDL", "Saccharomyces cerevisiae", 62400),
    ("ISIAQIEIAILFHISFFIFYFVSISFLLLYFICCILCTYVLLIYSLSFLYLVV", "Saccharomyces cerevisiae", 45800),
    ("DSHHHDELGSEITLADNKFSYLPPTLEELMEEQDCNNGRSFKNFMFSNDTGID", "Saccharomyces cerevisiae", 54500),
    ("QDEKHAEREGDTSSADGKEKSQDGDGGEKQKEGEGKPEKRNGVEAGAKNPAVK", "Saccharomyces cerevisiae", 10600),
    ("TQPIDIAASNQQNGEIAQLWDFNVDQFNMTPSNSSGSATISAPNSFTSDIPQY", "Saccharomyces cerevisiae", 57300),
    ("YCAINCGGIDGLSLFMKIQWIANLDYLDIELLFGGIYYYFVCLLLVLLLLLWL", "Saccharomyces cerevisiae", 42700),
    ("NRTLSTKDLIVLRLCSSFFAYFIISLFYCLMNLAFQIVVDRKFGQAGFIVFWM", "Saccharomyces cerevisiae", 62100),
    ("KKPPARLLAKKAPAAAAGGEEGSSKSAAKPAAPPVKKVVPAAAAAKPAKGGAP", "Saccharomyces cerevisiae", 28400),
    ("PPPARAARPARRRGRGCQRRMSSRLCRGREGGGGGGVRLPVQVGVVMVVQLGR", "Saccharomyces cerevisiae", 73100),
    ("MYFASYIFISFFSLFISIIHPFKIYYILLYTHHIIISIQLLLPFHFLTSIILS", "Saccharomyces cerevisiae", 80300),
    ("MILRAFFLLTVYFVCSPFFFLIIYLLFYDRPDSTLSWIWIWIHTFLPSLLFPS", "Saccharomyces cerevisiae", 42500),
    ("MIPLSHRKHKLISLPYLLVSSWLFLSVTLSIPLLQSYIAKHYSTGLVLFLLYF", "Saccharomyces cerevisiae", 71900),
    ("FFCSLFVSPVTLFFIFYSYCKRSFAISLLLMITIYWSFLLGLTASILVYRIWL", "Saccharomyces cerevisiae", 57500),
    ("LKEKSLRILILNGLVRLIWTYLYRCQESPSTTTTKLENLLKYLFPPNRTSVYP", "Saccharomyces cerevisiae", 44900),
    ("MLCFLYHLVSMCTLLHCLYLLPVLFLIFYASFFLLLACTWSSVRCLISLFFCL", "Saccharomyces cerevisiae", 57300),
    ("MFCLRSWLPLLFIPTNAPPIFVFLFFVCTFFLSRPCVYCSFLLAILFLTSCYW", "Saccharomyces cerevisiae", 65100),
    ("RYPPKHILISQSLILILLCFHLSFVWNKEFAPFNIESRTLFICFLGYLPILLL", "Saccharomyces cerevisiae", 36900),
    ("GVDDADHEEEEEEEEEEEQEGARYGALMGGLGVAQGAMRILAPAVAGGVYAVS", "Saccharomyces cerevisiae", 67300),
    ("ARDMLEDTFLIPKNLYAVHGPGISVKALEIADALVDVVNQYDQNAESEAWNFL", "Saccharomyces cerevisiae", 112000),
    ("MIELCLWVFSLLVLPRFGLRNFEVRINVALRELLLTITWGRLAIHVSLLRLVV", "Saccharomyces cerevisiae", 49000),
    ("PAPKKAAAPAKKDALKAKKEESSSSSSDSEDEKPAPKKAAASAAKKVVAKAQK", "Saccharomyces cerevisiae", 21000),
    ("ARVIRCNRSAELHVVNRLREVCEDQELRADSTALTSLVRTCRSDLRACINALQ", "Saccharomyces cerevisiae", 59300),
    ("MSFKFFFCLLIPSFSLFKITYAWSYLMILEVVFSPFFSQVVVFVLFILHHFYH", "Saccharomyces cerevisiae", 53000),
    ("NWYFLGTTMYFLYGESVIYYFKHIVLVDKVLLPFATHHRFISFMLYVIGFVFF", "Saccharomyces cerevisiae", 59100),
    ("MMKKKNWSYVVFWRGLPFFFFFFFFFFGEHFVLIFTSFVLFLLSLLCAGCVWV", "Saccharomyces cerevisiae", 25000),
]
